Assay: yeast display, Sf9 membrane polyspecificity reagent, FACS + sequencing; frameworks hold sequencing errors
Measurement name: polyreactivity (PSR sort gate)

Primary sequence	polyreactivity (PSR sort gate)
QVQLEESGGGLVQAGASLRLSCAASGFIFTSYAMGWYRQAPGKEREFVAASSRRGGSTYYADSVKGRFTISRDNAKNTVYLQMNILKPEYTAVYYCAADPKQHAGYEYWGQGTQVTVSS	high polyreactivity
QVQLVESGGGLVQAGGSLRLSCAASGRIFKQYAMGWYRQAPGKERELVAAISVRGGITYYADSVKGRFTISRDNAKNTVYLQMNSLKPEDTAVYYCAKRSYRTHTYDYWGQGTQVTVSS	low polyreactivity
QVLLVESGGGLVQAGGSLRVSCAASGFTFYGYAMGWYRQAPGKERELVAARSSTGGRTYYADSVKGRFTISRDNAKNTVYLQMNSLKPEDTAVYYCNKVWRFAEHNYWGQGTQVTVSS	high polyreactivity
QVQIVESGGGLVQAGGSLRLSCAASGRIFDGYAMGWYRQAPGKERELVAAISLSDGSTYYADSVKGRFTISRDHAKNTVYLQMNILKPEDTAVYYCAARVQHYLATDDYWGQGTQVTVSS	low polyreactivity
QVQLVESGGGLVQAGGSLLLSCAASGGTFYYYTMGWYRQAPGKERELVAAISWSGGSTYYADSVKGRFTISRDNAKNTVYLQMNSLKPEDTAVYYCAALAYVSDYDYWGQGTQVTVSS	high polyreactivity
QVQLVESGGGLVQAGGSLRLSCAASGSTFTGNAMGWSRQAPGKERELVAAITDRGGSTYADSVKGRFTISRDNAKNTVYLQMNSLKPEDSAVYYCATRRDLHDRYEYDYWGQGTQVTVSS	low polyreactivity
QVQLVESGGGLVQAGGSLRLSSAASGSIFWPNTMGWYRPAPGKERELVAGISFGGGSTYYADSVKGRFTISRDNAKNTVYLQMNRLKPEDTAVYYCNGDDPGYAGPWYWFKYDYWGQGTQVTVSS	low polyreactivity
QVQLVESGGGLVQAGGSLRLSCAASGSILGVYTMGWDRQAPGKERELVAAITSSSSSTYADSVKGRFTISRDNAKNTVYLQMNSVIPEDTAVYYCATRGWSKQLYGGYTQYYYWGQGTQVTVSS	high polyreactivity

Query polyreactivity (PSR sort gate) for `QVQLVESGGGLVQAGGSLRLSCAASGRIFYPNGMGWYRQAPGKERELVAAITGSGGSTYYADSVKGRFTISRDNAKNTVYLQMNSLIPEDTAVYYCAATWRYYLYPLGPHEFDYWGQGTQVTVSS`
low polyreactivity

Query polyreactivity (PSR sort gate) for `QVQLVESGGGLVQAGGSLRLSCAASGNTFRWYDMGGYRQAPGKERELVAAITSSGSTTYYADSVKGRFTISRDNAKNTVYLQMNSLKPEDTAVYYCAAEDHYEGYGGYYWGHGTQVTVSS`
low polyreactivity

Query polyreactivity (PSR sort gate) for `QVQLVESGGGLVQAGGSLRLSCAASGRIFYLYAMGWYRQAPGKERELVAAISRSGGSTYYADSVKGRFTISRDNAKNTVYLQMNSLKPEDTAVYYCNTVWYFSSRTRLHDYWGQGTQVTVSS`
high polyreactivity

====

Assay: yeast display, Sf9 membrane polyspecificity reagent, FACS + sequencing; frameworks hold sequencing errors
Measurement name: polyreactivity (PSR sort gate)

Use the examples below as a reference point.
Primary sequence	polyreactivity (PSR sort gate)
QVQLVESGGGLVQAGGSLRLSCAASGSILGLNAMGWYRQAPGKERELVAAITSRGGSTYYADSVKGRFTISRDNAKNTVYLQMNSLKPEDTAVYYCNREYVRVNYQYWYYAEYDYWGQGTQVTVSS	low polyreactivity
QVQLVESGGGLVQAGGSLRLSCAASGITFDRYAMGWYRQAPGKERELVAAITSGGRTYYADSVKGRFTISRDNAKNTVYLQMNSLKPEDTAVYYCNATRGQYVGRYYYWGQGSQVTVSS	high polyreactivity
QVQLVESGGGLVQAGGSLRLSCAASGSTFSQYAMGWYRQAPGKERELVAAITRGGRTYYADSVKGRFTISRDNAKNTVYLQMNSLKPEDTAVYYCNAVLGLLYGYDYWGQGTQVTVSS	high polyreactivity
QVQLVESGGGLVQAGGSLRLSCAASGLIFVANAMGWYRQAPGKERELVAAISRSGGITTYADSVKGRFTISRDNAKNTVYLQMNSLKPEDTAVYYCAADTDPNPLIDYTLPMDYWGQGTQVTVSS	low polyreactivity

Below: the item to evaluate.
Query polyreactivity (PSR sort gate) for `QVQLVESGGGLVQAGGSLRLSCAASGSILGLYAMGWYRQAPGKERELVASITSSGSTYYADSVKGRFTISRDNAKNTVYLQMNSLKPEDTAVYYCAARYYYGRRYDYWGQGTQVTVSS`
low polyreactivity
